Field: Kd. Provide a value for each of the binders that follow.
molecular target: T1, mouse TF ECD-His6 (mouse, UniProt P20352 29-251); assay: SPR (Biacore), antibody on chip, TF-His titrated
T1 construct: made in Expi293 cells; also called TF-His; mTF
Write it as a number; the unit nM goes unstated.

Query block: Look up and report measured Kd for this entry: 25G1 (antibody, human IgG1, kappa, V domains shown, human IgG1) VH: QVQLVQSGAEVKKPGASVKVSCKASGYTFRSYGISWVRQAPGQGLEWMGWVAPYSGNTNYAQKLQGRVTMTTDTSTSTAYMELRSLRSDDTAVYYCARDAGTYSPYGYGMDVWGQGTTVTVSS VL: DIQMTQSPSTLSASVGDRVTITCRASHSIDSWLAWYQQKPGKAPKLLIYKASYLESGVPSRFSGSGSGTEFTLTISSLQPDDFATYYCQLFQSLPPFTFGGGTKVEIKR
Result block: 5.4

Query block: Look up and report measured Kd for this entry: 43D7 (antibody, human IgG1, kappa, V domains shown, human IgG1) VH: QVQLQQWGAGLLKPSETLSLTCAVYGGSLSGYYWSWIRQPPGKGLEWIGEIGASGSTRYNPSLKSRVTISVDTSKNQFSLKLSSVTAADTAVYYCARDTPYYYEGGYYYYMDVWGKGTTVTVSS VL: EIVLTQSPGTLSLSPGERATLSCRASDSVDSSYLAWYQQKPGQAPRLLIYGAFSRANGIPDRFSGSGSGTDFTLTISRLEPEDFAVYYCQQAGVVPYTFGGGTKVEIKR
Result block: 21

Query block: Look up and report measured Kd for this entry: 25G9 (antibody, human IgG1, kappa, V domains shown, human IgG1) VH: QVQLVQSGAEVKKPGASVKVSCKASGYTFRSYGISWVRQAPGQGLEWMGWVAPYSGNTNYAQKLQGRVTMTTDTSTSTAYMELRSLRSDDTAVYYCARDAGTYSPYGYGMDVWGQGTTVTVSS VL: DIQMTQSPSTLSASVGDRVTITCQASQSIDSWLAWYQQKPGKAPKLLIYSASYLESGVPSRFSGSGSGTEFTLTISSLQPDDFATYYCQRFQSLPPFTFGGGTKVEIKR
Result block: 2.9

Query block: Look up and report measured Kd for this entry: 43D8 (antibody, human IgG1, kappa, V domains shown, human IgG1; also called 43D8 mAb; test article) VH: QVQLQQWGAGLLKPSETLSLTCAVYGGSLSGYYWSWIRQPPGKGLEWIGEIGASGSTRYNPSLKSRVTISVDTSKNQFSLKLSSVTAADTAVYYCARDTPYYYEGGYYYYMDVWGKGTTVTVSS VL: EIVLTQSPGTLSLSPGERATLSCRASQSVSSSFLAWYQQKPGQAPRLLIYGAYSRATGIPDRFSGSGSGTDFTLTISRLEPEDFAVYYCQQAGVVPYTFGGGTKVEIKR
Result block: 2.4
